# EXPERIMENT: Caco-2 membrane permeability, improved method as used in the following Examples (96-well, 20 to 24 h preincubation)
# Format: in vitro ADME
# STATED_CONDITIONS: human, Caco-2, Caco-2
Positions of bridges follow the written chain, without caps; N, C: chain ends. Non-standard residues stand in square brackets, D forms with d. Residues, ends and D or L forms follow the SMILES beside them. ξ: configuration not given here. *: point of attachment. NMehPhe = CN[C@@H](CCc1ccccc1)C(=O)O; Ethyl(2-morpholino) = C1CN(CC*)CCO1; Hyp = O=C(O)[C@@H]1C[C@@H](O)CN1; NMeF = CN[C@@H](Cc1ccccc1)C(=O)O; NMeI = CC[C@H](C)[C@H](NC)C(=O)O; CH2CH(OH)CF3 = OC(C*)C(F)(F)F; NMeL = CN[C@@H](CC(C)C)C(=O)O; NMeAbu = CC[C@H](NC)C(=O)O; Piperidide = C1CCN(*)CC1; NBuGly = CCCCNCC(=O)O; ξS = NC(CO)C(=O)O; Sar = CNCC(=O)O; tBu = CC(C)(C)*; Propyl = CCC*
Recorded Papp A→B at 180 min for the following molecules
Give your result in ×10⁻⁶ cm/s as a bare value.

Examples from the recorded data:
MOLECULE	UNITS_OF_MEASURE	NUMERIC_RESULT
CCCCN1CC(=O)N(C)[C@@H](CC(C)C)C(=O)N[C@H](C(=O)N2CCCCC2)CC(=O)N(C)[C@@H](CC)C(=O)NC(COCCN2CCOCC2)C(=O)N(C)[C@@H](CC(C)C)C(=O)N(C)[C@@H](CC)C(=O)N[C@@H](C(C)C)C(=O)N(C)[C@@H](Cc2ccccc2)C(=O)N(C)[C@@H](CC(C)C)C(=O)N[C@@H]([C@@H](C)O)C1=O (stereo partly drawn) [pd483] ([NMeAbu][ξS](Ethyl(2-morpholino))[NMeL][NMeAbu]V[NMeF][NMeL]T[NBuGly][NMeL]D-Piperidide; lactam N-11)	×10⁻⁶ cm/s	1.9
CCO[C@@H]1C[C@H]2C(=O)N[C@@H]([C@@H](C)O)C(=O)N(C)[C@@H](CC(C)C)C(=O)N(C)[C@@H](CC(C)C)C(=O)N(C)[C@@H](CC(C)C)C(=O)N[C@H](C(=O)N3CCCCC3)CC(=O)N[C@H](CC(C)C)C(=O)N(C)[C@@H]([C@@H](C)CC)C(=O)N3CCC[C@H]3C(=O)N(C)[C@@H](CC(C)C)C(=O)N[C@@H](COC(C)(C)C)C(=O)N2C1 [pd385] ([dL][NMeI]P[NMeL]S(tBu)[Hyp](Et)T[NMeL][NMeL][NMeL]D-Piperidide; lactam N-11)	×10⁻⁶ cm/s	3.4
CCCOC[C@@H]1NC(=O)[C@H](Cc2ccccc2)N(C)C(=O)[C@@H](C(C)C)NC(=O)C[C@@H](C(=O)N2CCCCC2)NC(=O)[C@H](CC(C)C)N(C)C(=O)[C@H](Cc2ccccc2)N(C)C(=O)[C@H](COC(C)(C)C)NC(=O)[C@H](CC(C)C)N(C)C(=O)CN(C)C(=O)[C@H]([C@@H](C)O)NC(=O)[C@H](CC(C)C)N(C)C1=O [pd327] ([dV][NMeF]S(Propyl)[NMeL]T[Sar][NMeL]S(tBu)[NMeF][NMeL]D-Piperidide; lactam N-11)	×10⁻⁶ cm/s	3.1

Item: CC[C@H](C)[C@@H]1NC(=O)[C@H](Cc2ccccc2)N(C)C(=O)CN(C)C(=O)C[C@@H](C(=O)N2CCCCC2)NC(=O)[C@H](CC(C)C)N(C)C(=O)[C@H](COC(C)(C)C)NC(=O)[C@H](CC(C)C)N(C)C(=O)[C@H](CCc2ccccc2)N(C)C(=O)CN(C)C(=O)[C@H]([C@@H](C)O)NC(=O)[C@H](CC(C)C)N(C)C1=O [pd324] ([Sar][NMeF]I[NMeL]T[Sar][NMehPhe][NMeL]S(tBu)[NMeL]D-Piperidide; lactam N-11) | Papp A→B at 180 min: 3.3

Item: CC[C@H](C)[C@@H]1NC(=O)[C@H](CC(C)C)N(C)C(=O)[C@H](COCC(O)C(F)(F)F)NC(=O)[C@H](Cc2ccccc2)N(C)C(=O)CN(C)C(=O)C[C@@H](C(=O)N2CCCCC2)NC(=O)[C@H](CC(C)C)N(C)C(=O)[C@H](COC(C)(C)C)NC(=O)[C@H](CC(C)C)N(C)C(=O)[C@H](Cc2ccccc2)N(C)C(=O)CN(C)C1=O (stereo partly drawn) [pd504] ([Sar][NMeF]S(CH2CH(OH)CF3)[NMeL]I[Sar][NMeF][NMeL]S(tBu)[NMeL]D-Piperidide; lactam N-11) | Papp A→B at 180 min: 4.1

Every entry's value here was drawn from patent US20200131669A1.
